- system-name: human NTCP (Homo sapiens, UniProt Q14973)
- Sequence (Q14973 whole entry): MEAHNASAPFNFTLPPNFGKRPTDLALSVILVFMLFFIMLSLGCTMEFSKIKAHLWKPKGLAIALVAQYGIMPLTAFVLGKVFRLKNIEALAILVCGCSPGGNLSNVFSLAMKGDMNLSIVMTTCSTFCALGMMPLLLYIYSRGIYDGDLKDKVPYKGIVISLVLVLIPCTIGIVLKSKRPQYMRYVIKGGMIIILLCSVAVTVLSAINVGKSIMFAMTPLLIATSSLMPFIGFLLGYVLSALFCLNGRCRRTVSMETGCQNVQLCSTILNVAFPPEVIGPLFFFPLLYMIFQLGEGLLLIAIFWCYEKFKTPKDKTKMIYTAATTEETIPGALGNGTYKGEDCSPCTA
- assay-name: Screening taurocholate uptake assay (96-well, [14C]taurocholate, 10 µM drug)
- condition: ranking score beside the functional and binding assay B-scores of the screen
Where a name gives a salt, the structure may show the parent alone.
assay-readout: Ranking score

Solved entries (count: 2):
Query Ranking score on human NTCP (Homo sapiens, UniProt Q14973) for CN[C@@H]1C[C@@H](c2ccc(Cl)c(Cl)c2)c2ccccc21 [Indatraline hydrochloride]
814.16

For the record `CC(=O)O[C@H]1C(=O)[C@@]2(C)[C@H]([C@H](OC(=O)c3ccccc3)[C@]3(O)C[C@H](OC(=O)[C@H](O)[C@@H](NC(=O)c4ccccc4)c4ccccc4)C(C)=C1C3(C)C)[C@]1(OC(C)=O)CO[C@@H]1C[C@@H]2O` , what value of Ranking score is listed for human NTCP (Homo sapiens, UniProt Q14973)?
752.811

Now let's try a different one.
Field: Ranking score (human NTCP (Homo sapiens, UniProt Q14973)). Entry: `NC(=O)CN1CCCC1=O`
661.843
